Where do the numbers come from? From patent US10597388B2.

Test system: ragweed (common ragweed, Ambrosia elatior)
Experiment: Test E greenhouse herbicide test, pre- and postemergence
Assay type: in vivo
Conditions: 62 g ai/ha, Postemergence; scale 0 to 100 (0 no effect, 100 complete control)
measuredQuantity: Plant response rating, Ragweed

[[record]]
molecularstring = "Cc1cc(C)c2sc(C)c(-c3c(OC(=O)OCCCl)c(C)nn(C)c3=O)c2c1"
observedmeasurement = 50

[[record]]
molecularstring = "CCOC(=O)Oc1c(C)nn(C)c(=O)c1-c1c(C)sc2ccc(C)cc12"
observedmeasurement = 90

[[record]]
molecularstring = "CC(=O)Oc1c(C)nn(C)c(=O)c1-c1c(C)cc(C)c2ccccc12"
observedmeasurement = 70

[[record]]
molecularstring = "CSCC(=O)Oc1c(C)nn(C)c(=O)c1-c1cccc2ccccc12"
observedmeasurement = 75

[[record]]
molecularstring = "COc1nn(C)c(=O)c(-c2c(C)sc3ccc(Cl)cc23)c1O"
observedmeasurement = 85

[[record]]
molecularstring = "CCC(=O)Oc1c(C)nn(C)c(=O)c1-c1c(C)sc2ccc(C)cc12"
observedmeasurement = 85


---

Tested on: field violet (Viola arvensis)
Assay: Test D controlled growth environment herbicide test, pre- and postemergence
Type: in vivo
Conditions: Postemergence, 31 g ai/ha; scale 0 to 100 (0 no effect, 100 complete control)
Listed here: items and their measured Field Violet plant response rating.
measuredQuantity: Field Violet plant response rating

[[record]]
molecularstring = "Cc1ccc2ccccc2c1-c1c(O)c(C)nn(C)c1=O"
measuredquantity = "Field Violet plant response rating"
observedmeasurement = 75

[[record]]
molecularstring = "CCC(=O)Oc1c(C)nn(C)c(=O)c1-c1c(C)sc2c(C)cc(C)cc12"
measuredquantity = "Field Violet plant response rating"
observedmeasurement = 80

[[record]]
molecularstring = "CC(=O)Oc1c(C)nn(C)c(=O)c1-c1c(C)sc2c(C)cc(C)cc12"
measuredquantity = "Field Violet plant response rating"
observedmeasurement = 75

[[record]]
molecularstring = "COc1nn(C)c(=O)c(-c2c(C)ccc3ccccc23)c1OC(=O)OC(C)C"
measuredquantity = "Field Violet plant response rating"
observedmeasurement = 70


---

Recorded Plant response rating, Velvetleaf by entry
System: velvetleaf (Abutilon theophrasti)
Assay: Test C greenhouse herbicide test, pre- and postemergence
Assay type: in vivo
Conditions: Postemergence, 31 g ai/ha; scale 0 to 100 (0 no effect, 100 complete control)
measuredQuantity: Plant response rating, Velvetleaf

[[record]]
molecularstring = "Cc1nn(C)c(=O)c(-c2cc(F)cc3ccccc23)c1OS(C)(=O)=O"
measuredon = "velvetleaf (Abutilon theophrasti)"
observedmeasurement = 15

[[record]]
molecularstring = "COC(=O)Oc1c(C)nn(C)c(=O)c1-c1c([N+](=O)[O-])ccc2ccccc12"
measuredon = "velvetleaf (Abutilon theophrasti)"
observedmeasurement = 5

[[record]]
molecularstring = "Cc1ccc2ccccc2c1-c1c(OC(=O)N2CCOCC2)c(Br)nn(C)c1=O"
measuredon = "velvetleaf (Abutilon theophrasti)"
observedmeasurement = 0


---

# reported Wheat plant response rating; entries follow
System: wheat (Triticum aestivum)
Assay: Test A greenhouse herbicide test, pre- and postemergence
Format: in vivo
Settings: Postemergence, 500 g ai/ha; 0 to 100 scale, 0 is no effect, 100 is complete control
measuredQuantity: Wheat plant response rating

[[record]]
molecularstring = "Cc1cc(C)c2sc(C)c(-c3c(OC(=O)OC(C)C)c(C)nn(C)c3=O)c2c1"
observedmeasurement = 0

[[record]]
molecularstring = "CC(=O)Oc1c(C)nn(C)c(=O)c1-c1c(C)sc2ccc(C)cc12"
observedmeasurement = 0

[[record]]
molecularstring = "CCOC(=O)Oc1c(C)nn(C)c(=O)c1-c1c(C)sc2c(C)cc(C)cc12"
observedmeasurement = 20

[[record]]
molecularstring = "Cc1cc(C)c2sc(C)c(-c3c(OC(=O)C(C)(C)C)c(C)nn(C)c3=O)c2c1"
observedmeasurement = 0

[[record]]
molecularstring = "COc1nn(C)c(=O)c(-c2cccc3ccccc23)c1O"
observedmeasurement = 0

[[record]]
molecularstring = "CC(=O)Oc1c(C)nn(C)c(=O)c1-c1ccc(F)c2ccccc12"
observedmeasurement = 30

[[record]]
molecularstring = "Cc1ccc2ccccc2c1-c1c(O)c(C)nn(C)c1=O"
observedmeasurement = 100

[[record]]
molecularstring = "CCC(=O)Oc1c(C)nn(C)c(=O)c1-c1c(C)sc2c(C)cc(C)cc12"
observedmeasurement = 0

[[record]]
molecularstring = "COc1nn(C)c(=O)c(-c2c(C)sc3ccccc23)c1O"
observedmeasurement = 0

[[record]]
molecularstring = "Cc1ccc(-c2c(O)c(Br)nn(C)c2=O)c2ccccc12"
observedmeasurement = 0

[[record]]
molecularstring = "CCOC(=O)Oc1c(C)nn(C)c(=O)c1-c1c(CC)ccc2ccccc12"
observedmeasurement = 80

[[record]]
molecularstring = "Cc1cc(C)c2ccccc2c1-c1c(O)cnn(C)c1=O"
observedmeasurement = 0

